Biological target: UBE2G1; note: test concentration or dose not given here
Assay: reporter assay of Huesken 2005
Settings: siRNA
Oligonucleotides are written 5' to 3', each unit as a sugar letter and its base; * is a phosphorothioate linkage, no mark a phosphodiester; rarer units and linkages stand in square brackets, end groups in braces. Plain capitals give the bases only. d = 2'-deoxy (DNA); r = 2'-OH (RNA)
Readings of normalised inhibition (eCFP-eYFP dual reporter) for the listed substances
metric_name: normalised inhibition (eCFP-eYFP dual reporter)

>>> readout_value("sense rGrArUrArCrArCrUrUrUrArUrGrArArGrGrUrGdTdT / antisense rCrArCrCrUrUrCrArUrArArArGrUrGrUrArUrCdTdG")
"66%"
>>> readout_value("sense rArArArCrCrArUrCrArUrGrArUrUrArGrUrGrUdTdT / antisense rArCrArCrUrArArUrCrArUrGrArUrGrGrUrUrUdCdC")
"66.9%"
>>> readout_value("sense rArGrCrCrArGrArGrGrArArCrGrCrUrGrGrCrUdTdT / antisense rArGrCrCrArGrCrGrUrUrCrCrUrCrUrGrGrCrUdTdT")
"37.8%"
>>> readout_value("sense rArUrArArGrUrArUrGrGrUrUrArUrGrArArArAdTdT / antisense rUrUrUrUrCrArUrArArCrCrArUrArCrUrUrArUdCdT")
"69.3%"
